The measured values listed here are drawn from the supplement of paper PMC11451515.

# cell viability per entry
# Tested on: SEM cells
# procedure-text: cell viability relative to DMSO control; higher = less cytotoxic
# condition-summary: RPMI 5 mM glucose + 10% dialyzed FBS; 48 h; 0.0211 µM
Answer in %, number only, no unit symbol.

COc1cc([C@@H](CC(=O)O)c2ccc(C)c(CN3C[C@@H](C)Oc4ccccc4[S+]3(=O)[O-])c2)cc2nnn(C)c12 ... 104
CCN(CC)CCOc1ccc(Cc2ccccc2)cc1 ... 113
CCc1cc2c(cc1N1CCC(N3CCOCC3)CC1)C(C)(C)c1[nH]c3cc(C#N)ccc3c1C2=O ... 97.7
COc1cc(Nc2c(C#N)cnc3cc(OCCCN4CCN(C)CC4)c(OC)cc23)c(Cl)cc1Cl ... 105
O=C1CCC[C@@H]2[C@H]3CCCN4CCC[C@@H](CN12)[C@@H]34 ... 89.7
Cc1ccc([N+](=O)[O-])cc1[S+](=O)([O-])N(C)/N=C/c1cnc2ccc(Br)cn12 ... 95.3
CCOC(=O)N1c2ccc(C(F)(F)F)cc2[C@@H](N(Cc2cc(C(F)(F)F)cc(C(F)(F)F)c2)C(=O)OC)C[C@H]1CC ... 113
CC[N+](CC)(CC)CCOc1cccc(OCC[N+](CC)(CC)CC)c1OCC[N+](CC)(CC)CC ... 112

Answer with the recorded cell viability for the compound listed here: CC(C)N(C[C@H]1O[C@@H](n2cnc3c(N)ncnc32)[C@H](O)[C@@H]1O)[C@H]1C[C@@H](CCc2nc3cc(C(C)(C)C)ccc3[nH]2)C1 88.2

Respond only with cell viability recorded for C=C1C(=O)[C@@]23C(CC[C@@H]1[C@H]2O)[C@@]12CO[C@]3(O)[C@@H](O)[C@@H]1C(C)(C)CC[C@@H]2O (some centres not stated) 109

Entry O=C(CC12CC3CC(CC(C3)C1)C2)Nc1cccc2nc(NCCNCCO)ccc12 needs its cell viability filled in; supply it. 94.8

Specify cell viability for Clc1cccc(-n2nnnc2NCc2ccccc2Oc2ccccn2)c1Cl and stop. 140
